Measured IC50 accompanies every entry in the list below.
Biological target: P2X7 receptor (Rattus norvegicus, UniProt Q64663)
Construct: rP2X7 (IC50; nM); other: rP2X7; HEK-293 cells stably transfected with P2X7 receptor, Bz-ATP at EC80, Fluo-8 NW; potency
Sequence (Q64663 1-595): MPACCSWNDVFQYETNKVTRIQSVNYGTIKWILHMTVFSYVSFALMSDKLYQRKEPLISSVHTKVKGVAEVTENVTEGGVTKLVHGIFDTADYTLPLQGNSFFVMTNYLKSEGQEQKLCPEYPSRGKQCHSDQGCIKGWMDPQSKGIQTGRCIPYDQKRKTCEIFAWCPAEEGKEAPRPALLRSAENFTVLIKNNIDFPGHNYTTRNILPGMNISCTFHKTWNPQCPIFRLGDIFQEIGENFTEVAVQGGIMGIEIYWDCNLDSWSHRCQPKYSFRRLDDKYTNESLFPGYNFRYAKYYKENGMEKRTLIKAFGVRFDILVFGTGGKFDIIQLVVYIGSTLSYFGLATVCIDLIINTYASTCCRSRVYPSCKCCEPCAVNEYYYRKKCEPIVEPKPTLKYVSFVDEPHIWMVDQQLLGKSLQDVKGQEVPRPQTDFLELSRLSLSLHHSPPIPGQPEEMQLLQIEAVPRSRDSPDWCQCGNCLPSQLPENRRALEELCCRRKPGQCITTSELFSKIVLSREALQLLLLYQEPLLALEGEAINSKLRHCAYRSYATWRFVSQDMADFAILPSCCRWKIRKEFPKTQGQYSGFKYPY
Assay: Screen Quest Fluo-8 No Wash Calcium Assay (Bz-ATP evoked Ca2+ influx, FLIPR)
Format: cell-based
Settings: rP2X7; HEK-293 cells stably transfected with P2X7 receptor, Bz-ATP at EC80, Fluo-8 NW; potency ranges A-D

>>> reported("O=c1onc(Cc2c(F)cccc2Cl)n1CC1CCC(F)(F)C1 (single isomer, unassigned) [Example 148]")
"< 200 nM"
>>> reported("O=c1onc(Cc2c(F)cccc2Cl)n1CCC1CCCCC1 [Example 142]")
"200 to 1000 nM"
>>> reported("Cc1ncccc1Cc1noc(=O)n1Cc1ccc(F)cc1 [Example 216]")
"1000 to 10000 nM"
>>> reported("O=c1onc(Cc2cccc(C(F)(F)F)c2Cl)n1CC1CCC(F)(F)CC1 [Example 155]")
"200 to 1000 nM"
>>> reported("Cn1ccnc1Cn1c(CC2CCC(F)(F)CC2)noc1=O [Example 201]")
"1000 to 10000 nM"
>>> reported("O=c1onc(Cc2cccc(Cl)c2Cl)n1CC1CCCCC1 [Example 115]")
"200 to 1000 nM"
>>> reported("CC(c1ccc(F)cc1)n1c(Cc2ccc(F)cc2)noc1=O (stereo not shown) [Example 11]")
"1000 to 10000 nM"
>>> reported("CC(c1ccc(F)cc1)n1c(CC2CCC(F)(F)CC2)noc1=O (stereo not shown) [Example 164]")
"1000 to 10000 nM"
>>> reported("O=c1onc(Cc2c(F)cccc2Cl)n1CC1COCCO1 (stereo not shown) [Example 98]")
"1000 to 10000 nM"
>>> reported("O=c1onc(Cc2c(F)cccc2Cl)n1CC1CC=CC1 [Example 183]")
"200 to 1000 nM"

IC50 recorded for this compound, O=c1onc(Cc2c(F)cccc2Cl)n1CC12CCC(CC1)C2 [Example 91] , is < 200 nM

IC50 recorded for this compound, O=c1onc(Cc2c(F)cccc2Cl)n1CC1CCOCC1 [Example 93] , is 200 to 1000 nM

IC50 recorded for this compound, O=c1onc(Cc2c(F)cccc2Cl)n1CC1CCC2(CC1)OCCO2 [Example 70] , is 1000 to 10000 nM

IC50 recorded for this compound, O=c1onc(Cc2c(F)cccc2Cl)n1Cc1cccc2ccccc12 [Example 29] , is > 10000 nM

###

target: P2X7 receptor (Homo sapiens, UniProt Q99572); test: YO-PRO-1 uptake assay; assay type: cell-based; parameters: expressed in transfected cells; details: HEK-293 cells stably transfected with P2X7 receptor; Bz-ATP EC80 (30 μM); Low Divalent Cation Assay Buffer
Sequence (Q99572 whole entry): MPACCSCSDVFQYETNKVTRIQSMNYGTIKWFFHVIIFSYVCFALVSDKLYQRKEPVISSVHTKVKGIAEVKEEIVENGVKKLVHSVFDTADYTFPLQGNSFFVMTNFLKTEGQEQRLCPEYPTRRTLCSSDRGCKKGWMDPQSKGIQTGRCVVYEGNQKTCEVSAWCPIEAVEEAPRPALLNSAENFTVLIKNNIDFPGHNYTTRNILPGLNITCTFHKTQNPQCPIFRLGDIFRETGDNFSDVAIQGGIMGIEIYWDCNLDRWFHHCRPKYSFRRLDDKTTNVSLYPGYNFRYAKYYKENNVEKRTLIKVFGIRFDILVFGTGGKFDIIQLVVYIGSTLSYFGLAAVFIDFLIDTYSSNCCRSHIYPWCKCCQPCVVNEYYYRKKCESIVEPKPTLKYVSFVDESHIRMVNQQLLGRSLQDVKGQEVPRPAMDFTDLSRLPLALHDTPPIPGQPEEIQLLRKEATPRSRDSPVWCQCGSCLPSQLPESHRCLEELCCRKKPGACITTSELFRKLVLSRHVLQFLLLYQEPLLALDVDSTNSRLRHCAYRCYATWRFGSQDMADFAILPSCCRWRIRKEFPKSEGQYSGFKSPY
measure: IC50 (nM)

// solved cases for IC50 follow
>>> reported("CC1CCCCC1Cn1c(Cc2c(F)cccc2Cl)noc1=O (stereo not shown)")
82
>>> reported("O=c1onc(CC2CCCCC2)n1Cc1c(F)cccc1Cl")
233
>>> reported("O=c1onc(Cc2ccc(F)cc2Cl)n1CC1CCCCC1")
129
>>> reported("O=c1onc(Cc2c(F)cccc2Cl)n1CC1CCCC1")
131

I = CC(c1ccc(F)cc1)n1c(Cc2c(F)cccc2Cl)noc1=O (stereo not shown)
II = O=c1onc(Cc2ccccc2F)n1CC1CCCCC1
-- ask Just tell me: smaller IC50 value, I or II ? Please respond with the label that marks your chosen entry.
-- reply I

I = O=c1onc(Cc2c(F)cccc2Cl)n1CC1CC2CCC1C2 (stereo not shown)
II = Cc1noc(C)c1Cc1noc(=O)n1CC1CCC(F)(F)CC1
-- ask Which is greater in IC50, the first item I or the second item II ? Please respond with the label that marks your chosen entry.
-- reply II
(II: 171 nM, I: 63 nM)

###

Measured IC50 accompanies every entry in the list below.
Molecular target: P2X7 receptor (Mus musculus)
Construct: mP2X7 (IC50; nM); other: mP2X7; HEK-293 cells stably transfected with P2X7 receptor, Bz-ATP at EC80, Fluo-8 NW; potency
Sequence (Q9Z1M0 1-595): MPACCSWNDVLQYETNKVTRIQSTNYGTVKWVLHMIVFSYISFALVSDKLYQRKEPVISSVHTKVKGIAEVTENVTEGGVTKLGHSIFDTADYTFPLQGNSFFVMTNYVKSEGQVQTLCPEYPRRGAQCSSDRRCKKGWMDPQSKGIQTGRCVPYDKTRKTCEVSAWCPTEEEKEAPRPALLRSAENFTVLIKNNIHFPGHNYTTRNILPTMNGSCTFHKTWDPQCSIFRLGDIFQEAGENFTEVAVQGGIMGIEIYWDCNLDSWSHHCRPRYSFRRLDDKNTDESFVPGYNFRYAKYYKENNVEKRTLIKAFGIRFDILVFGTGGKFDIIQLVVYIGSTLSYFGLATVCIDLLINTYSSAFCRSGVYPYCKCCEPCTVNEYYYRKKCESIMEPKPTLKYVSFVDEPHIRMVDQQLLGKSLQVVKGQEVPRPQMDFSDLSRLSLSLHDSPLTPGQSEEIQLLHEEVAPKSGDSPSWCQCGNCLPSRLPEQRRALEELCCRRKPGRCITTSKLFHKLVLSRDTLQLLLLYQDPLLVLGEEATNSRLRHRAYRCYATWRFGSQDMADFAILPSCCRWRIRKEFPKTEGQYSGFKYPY
Assay: Screen Quest Fluo-8 No Wash Calcium Assay (Bz-ATP evoked Ca2+ influx, FLIPR)
Type: cell-based
Conditions: mP2X7; HEK-293 cells stably transfected with P2X7 receptor, Bz-ATP at EC80, Fluo-8 NW; potency ranges A-D

>>> reported("O=c1onc(Cc2c(F)cccc2Cl)n1CCN1CCC(F)(F)CC1")
"1000 to 10000 nM"
>>> reported("O=c1onc(Cc2c(F)cccc2Cl)n1CC1CC=CC1")
"1000 to 10000 nM"

IC50 recorded for this molecule, O=c1onc(Cc2ccccn2)n1Cc1ccc(F)cc1 , is > 10000 nM

IC50 recorded for this molecule, O=c1onc(Cc2c(F)cccc2Cl)n1CC1CCC(F)(F)C1 (racemic) [Example 128] , is 200 to 1000 nM

IC50 recorded for this molecule, O=c1onc(Cc2ccc(F)cc2)n1CC1CCC(F)(F)CC1 , is 1000 to 10000 nM

IC50 recorded for this molecule, O=c1onc(Cc2c(F)cccc2Cl)n1CC1CC1 , is > 10000 nM

IC50 recorded for this molecule, O=c1onc(Cc2c(F)cccc2Cl)n1Cc1ccccc1Cl , is 1000 to 10000 nM

IC50 recorded for this molecule, O=c1onc(Cc2ccncc2)n1Cc1ccc(F)cc1 , is > 10000 nM

IC50 recorded for this molecule, COc1cccc(Cc2noc(=O)n2CC2CCCCC2)c1 , is > 10000 nM

IC50 recorded for this molecule, O=c1onc(CC2CCC(F)(F)CC2)n1Cc1ccccc1F , is 200 to 1000 nM

IC50 recorded for this molecule, Cc1nn(C)c(C)c1Cc1noc(=O)n1CC1CCC(F)(F)CC1 , is 1000 to 10000 nM

IC50 recorded for this molecule, O=c1onc(Cc2c(F)cccc2Cl)n1Cc1ccc(F)cc1Cl , is 1000 to 10000 nM

IC50 recorded for this molecule, Cc1ncccc1Cc1noc(=O)n1Cc1ccc(F)cc1 , is > 10000 nM

###

target: P2X7 receptor (Mus musculus, UniProt Q9Z1M0); construct: mP2X7 (IC50; nM); other: mP2X7; HEK-293 cells stably transfected with P2X7 receptor, Bz-ATP at EC80, Fluo-8 NW; potency; experiment: Screen Quest Fluo-8 No Wash Calcium Assay (Bz-ATP evoked Ca2+ influx, FLIPR); assay type: cell-based; conditions: mP2X7; HEK-293 cells stably transfected with P2X7 receptor, Bz-ATP at EC80, Fluo-8 NW; potency ranges A-D
measure: IC50

// solved cases for IC50 follow
>>> reported("O=c1onc(Cc2c(F)cccc2Cl)n1Cc1cccnc1")
"> 10000 nM"
>>> reported("O=c1onc(Cc2c(F)cccc2Cl)n1Cc1cccc(F)c1")
"200 to 1000 nM"

Record O=c1onc(Cc2c(F)cccc2Cl)n1Cc1cncs1 / P2X7 receptor (Mus musculus, UniProt Q9Z1M0), IC50 recorded as > 10000 nM

Record O=c1onc(CCc2c(F)cccc2Cl)n1Cc1ccc(F)cc1 / P2X7 receptor (Mus musculus, UniProt Q9Z1M0), IC50 recorded as 200 to 1000 nM
